Test system: LOX IMVI melanoma
procedureDetails: NCI tumour cell line growth inhibition, 48 h
Please provide measured GI50 for the entries that follow.

Find the recorded GI50 belonging to `COc1ccc(C(=O)/C(Br)=C/C(=O)O)cc1` and report it.
18100 nM

# query: GI50 of entry `COc1ccc2nc(N/N=C(\C)c3ccccn3)cc(C)c2c1`
236 nM

What value of GI50 has been recorded for this entry: `COc1ccc2cc(C(=O)/C=C/c3cc(OC)c(OC)c(OC)c3)ccc2c1`
2550 nM

----------
Test system: SNB-75 CNS
procedureDetails: NCI tumour cell line growth inhibition, 48 h
measuredMetric: TGI

What value of TGI on SNB-75 CNS does COC(=O)c1cc(C)ccc1CC(Cc1cccc(C)c1)C(=O)OC (stereo unspecified) have?
> 100 µM

# returns recorded TGI (system: SNB-75 CNS) for `CC(=O)c1ccc(N=Nc2ccc3nonc3c2N)cc1`
> 100 µM

What is its TGI for SNB-75 CNS? Entry: COc1cc(C2C=C(c3cccc(NC(C)=O)c3)Nc3ncnn32)cc(OC)c1OC (stereo unspecified)
> 100 µM

Record `CS(=O)(=O)CCNCc1nc(-c2ccc3ncnc(Nc4ccc(F)c(Cl)c4)c3c2)cs1` : what is its TGI with SNB-75 CNS?
> 25 µM

Any idea what TGI came out for `O=C(Nc1ccccc1F)c1c(O)nc2sccn2c1=O` on SNB-75 CNS?
> 10 µM

For the record `O=P(O)(CCP(=O)(O)c1ccccc1)c1ccccc1` , what value of TGI is listed for SNB-75 CNS?
> 100 µM

Item: OC(C1CCC=NN1C(O)(C(F)(F)F)C(F)(F)F)(C(F)(F)F)C(F)(F)F (stereo unspecified) Test system: SNB-75 CNS Read-out: TGI Value: ?
> 10 µM

Lab request: please report TGI under test system SNB-75 CNS for `CCOc1ccccc1NC(=O)C(=O)CC(=O)c1c(C)n([O-])c2ccccc2[n+]1=O`
> 100 µM

Observed TGI on SNB-75 CNS for `CCOC/N=C(/N)NC#N` , please.
> 100 µM

State its TGI on SNB-75 CNS: `Nc1ccn(CCOC(=O)c2ccccc2)c(=O)n1`
> 100 µM

Give TGI (SNB-75 CNS) of the following compound: `CC(=O)NNc1nc(C)c(C(/C=C/c2ccc3c(c2)OCO3)=N/Nc2ccccc2)s1`
> 100 µM

GET /values?readout=TGI&system=SNB-75 CNS&item= `Cc1ccc(S(=O)(=O)N/C(=C\C=C\c2ccccc2)C(=O)C(C)(C)C)cc1`
> 100 µM

Request: TGI, test system SNB-75 CNS, entry `c1ccc2c(-c3cnc(-c4c[nH]c5ccccc45)cn3)c[nH]c2c1`
94.4 µM

Return TGI measured with SNB-75 CNS given this compound: CCOC(=O)c1ccc(NC(=O)N2CC(C)OC(C)C2)cc1 (stereo unspecified)
> 100 µM

Hello, I am looking for reported TGI with SNB-75 CNS for `COC(=O)Cc1ccc2c(c1)Sc1ccc(CC(=O)OC)cc1N2C` . Could you help?
> 93.4 µM

Param readout = TGI; param system = SNB-75 CNS; param query = `Cc1cc(-c2ncc(CC(=O)Nc3ccc(-c4cnccn4)cn3)cc2C)ccn1` ; response: value
> 100 µM

Hi! What's the reported TGI for `CC(=O)n1c(COS(C)(=O)=O)nc2ccccc21` on SNB-75 CNS?
> 100 µM

Give SNB-75 CNS TGI for COC(=O)C12Oc3ccc(-c4ccc5c(c4O)C(=O)C4=CCC(C)C(O)C4(C(=O)OC)O5)c(O)c3C(=O)C1=CCC(C)C2O (stereo unspecified)
20.5 µM

Form: Entry = `Cc1nc2ccc(S(=O)(=O)Nc3ccc(Cl)cc3)cc2c(=O)n1NC(=O)CNc1ccc(Cl)cc1` | System = SNB-75 CNS | TGI = ____
> 100 µM

// fetch SNB-75 CNS TGI for `Cc1cnoc1NC1=CC(=O)C(=O)c2ccccc21`
> 100 µM

Provide value of TGI for this record tested with SNB-75 CNS: O=C(c1ccccc1)C(c1ccccc1)C1(O)C(=O)Nc2c(Cl)cc(Cl)cc21 (stereo unspecified)
39.7 µM
